- particulars: buffer; pH 7.4; 200.0 µM
Catalogue of solubility kinetic readings, one per entry.
property-label: solubility kinetic

{"columns": ["compound", "property-label", "meas-value"],
 "data": [
  ["COP(=O)(Cc1ccc(C#N)o1)OC", "solubility kinetic", "> 32.3 µg/mL"],
  ["N/C(=N\\OC(=O)c1ccc([N+](=O)[O-])cc1)c1ccc(Br)cc1", "solubility kinetic", "< 0.3 µg/mL"],
  ["COc1cc(OC)cc(C(=O)OCC(=O)N2CCCC2)c1", "solubility kinetic", "> 44 µg/mL"],
  ["CCCc1nc2c(=O)n(C)c(=O)nc-2n(C)n1", "solubility kinetic", "> 35.3 µg/mL"],
  ["CN(C)C(=O)CCCCCCCCC(=O)N(C)C", "solubility kinetic", "> 38.5 µg/mL"],
  ["CCCNC(=O)C12CCC(C)(C(=O)O1)C2(C)C (stereo unspecified)", "solubility kinetic", "> 35.9 µg/mL"],
  ["CCOc1ccc(OCC(=O)OC(C)C(=O)NC2CCCC2)cc1 (stereo unspecified)", "solubility kinetic", "> 50.3 µg/mL"],
  ["CCc1cccc(C)c1NC(=O)CN1C(=O)NC(C)(CCC(C)C)C1=O (stereo unspecified)", "solubility kinetic", "> 53.9 µg/mL"],
  ["CC(C)(C)c1ccc(NC(=O)CCNC(=O)c2ccco2)cc1", "solubility kinetic", "> 47.2 µg/mL"],
  ["Cl.N#C/C=C/N1CCN(Cc2ccc3c(c2)OCO3)CC1", "solubility kinetic", "> 46.2 µg/mL"],
  ["Cc1[nH]c2ccccc2c1-c1nc(N)sc1C", "solubility kinetic", "> 36.5 µg/mL"]
]}

* * *

- particulars: buffer; pH 7.4; 200.0 µM
Please mark MET if the recorded solubility kinetic is equal to or greater than 5 µg/mL, and NOT MET if it falls below.

{"columns": ["compound", "class-name"],
 "data": [
  ["CCOc1ccc([N+](=O)[O-])cc1CNC1CCCCCCC1.Cl", "MET"],
  ["O=C(c1cc2cc(F)ccc2[nH]1)N1CCN(c2ccc(F)cc2)CC1", "NOT MET"],
  ["CC1CCCC(NC(=O)c2ccncc2)C1C (stereo unspecified)", "MET"],
  ["CCc1cc(N2CCOCC2)cc2c1[nH]c1ccccc12", "MET"],
  ["Cc1nc(=S)c2c([nH]1)-c1ccccc1CC21CCCCC1", "NOT MET"],
  ["Cc1cc(C(=O)NC(C)C2CC2)c(Cl)cc1Cl (stereo unspecified)", "NOT MET"],
  ["Cc1ccsc1C1C(C#N)=C(N)OC2=C1C(=O)CC(C)C2 (stereo unspecified)", "MET"],
  ["CC(Sc1nc(-c2ccco2)nc2c1c(=O)n(C)c(=O)n2C)C(=O)O (stereo unspecified)", "MET"],
  ["CC1CCN(C(=O)CN2C(=O)NC(C)(c3ccc4ccccc4c3)C2=O)CC1 (stereo unspecified)", "MET"],
  ["O=C(/C=C/c1ccc(Cl)c(Cl)c1)N1CCOCC1", "MET"]
]}

* * *

- particulars: buffer; pH 7.4; 200.0 µM
Listing of entries alongside the reported solubility kinetic.

{"columns": ["compound", "solubility kinetic"],
 "data": [
  ["Cc1ccccc1CCNCc1cc2cccc(C)c2[nH]c1=O", "> 46 µg/mL"],
  ["CC12CN3CC(C)(CN(C1)C3c1ccc3c(c1)OCO3)C2O (stereo unspecified)", "> 45.4 µg/mL"],
  ["CC(C)OCCCNC(=O)C1CCN(S(=O)(=O)N2CCCC2)CC1", "> 54.2 µg/mL"],
  ["Cc1ccc(Nc2nc(N)nc(CCl)n2)c(C)c1", "> 39.6 µg/mL"],
  ["O=C(O)[C@@H]1CCCN1C(=O)COc1ccc2c3c(c(=O)oc2c1)CCC3", "> 53.6 µg/mL"],
  ["NC(=O)c1ccc(OCC(=O)N2CCNC2=O)cc1", "> 39.5 µg/mL"],
  ["Cc1ccc(C)c(NC(=O)COC(=O)c2ccc[n+]([O-])c2)c1", "> 45 µg/mL"],
  ["O=C(O)/C=C/C(=O)Nc1ccc(C(=O)c2ccccc2)cc1", "> 44.3 µg/mL"],
  ["N#Cc1c(-c2ccccc2)nc(N2CCN(Cc3ccccc3)CC2)[nH]c1=O", "> 55.7 µg/mL"],
  ["Cc1c(C(=O)C(=O)NCC2CCCO2)c2ccccc2n1C (stereo unspecified)", "> 45.1 µg/mL"],
  ["Cc1cnc(C(=O)OCC(=O)NCc2cccc(Cl)c2)cn1", "> 48 µg/mL"],
  ["O=C(Nc1c[nH]c(=O)[nH]c1=O)c1ccccc1Cl", "> 39.8 µg/mL"],
  ["COCCn1c(SCc2ccccc2)nc2c1c(=O)[nH]c(=O)n2C", "> 52 µg/mL"],
  ["CNC(=S)NC1CC2CCCC(C1)N2Cc1ccccc1OC (stereo unspecified)", "> 50 µg/mL"],
  ["Nc1cc(N)nc(SCC(=O)NCCC2=CCCCC2)n1", "> 46.1 µg/mL"],
  ["CCOC(=O)c1sc(=NC(=O)/C=C/c2ccccc2)n(C)c1C", "< 0.4 µg/mL"]
]}

* * *

- particulars: buffer; pH 7.4; 200.0 µM
We begin with a simple list: items and their reported solubility kinetic.

{"columns": ["compound", "sign-qualifier", "solubility kinetic / µg/mL"],
 "data": [
  ["COc1cccc(OCCn2cc(C(C)=O)c3ccccc32)c1", "=", 10.9],
  ["O=C(c1ccco1)N1CCN(C(=O)c2ccc(-c3ccc([N+](=O)[O-])cc3)o2)CC1", "=", 44.1],
  ["OCCN1CCN(c2cc(C(F)(F)F)nc3ccccc23)CC1", ">", 48.8],
  ["O=S(=O)(NCc1cccnc1)c1ccc2ccccc2c1", "=", 41.3],
  ["O=C(NCCCn1ccnc1)c1ccc2nccnc2c1", ">", 42.2],
  ["NC(=O)C[C@H](NC(=O)c1ccc(Cl)cc1)C(=O)OCc1ccccc1", ">", 54.1],
  ["O=C(NCc1ccco1)C1CCCN1C(=O)Nc1ccccc1 (configuration not stated)", "=", 43.5],
  ["C=CCNc1nc(N)c([N+](=O)[O-])c(N2CCCCCC2)n1", "=", 40.4],
  ["Cc1ccc(NC(=O)COC(=O)CNC(=O)c2ccco2)cc1", "=", 44.7],
  ["NC(=S)Nc1cccc(-c2n[nH]c(=S)o2)c1", ">", 37.8],
  ["C=C(C)C(=O)Oc1ccc(N2C(=O)CCC2=O)cc1", ">", 38.9],
  ["COc1ccc(C(CC(=O)O)N2Cc3ccccc3C2=O)cc1 (configuration not stated)", ">", 46.7],
  ["O=C(c1cc(-c2ccncc2)nc2ccccc12)N1CCN(Cc2ccccc2)CC1", ">", 61.3],
  ["Cc1ccc([N+](=O)[O-])cc1NC(=O)c1cccnc1", ">", 38.6],
  ["CC1(C)c2ccccc2N(CC(N)=O)C12C=Cc1ccccc1O2 (configuration not stated)", "=", 12.6],
  ["Cc1nc(=O)c(-c2ccccc2)c(C)n1-c1ccc(Br)cc1", ">", 53.3],
  ["CCC(CO)NC(=O)c1ccccc1C(F)(F)F (configuration not stated)", "=", 28],
  ["N#Cc1ccccc1NC(=S)Nc1ccc(F)cc1", "=", 35.1],
  ["O=C(CN1C(=O)COc2ccc(Cl)cc21)Nc1ccccn1", "=", 17],
  ["COc1ccc(NC(=O)c2cnc(SC)nc2)cc1", "=", 8.4],
  ["Cc1[nH]c(=S)c(C#N)c(-c2ccco2)c1C(=O)N(C)C", ">", 43.1],
  ["CC(C)NCc1nnc(-c2ccc(Cl)cc2)o1", ">", 37.8],
  ["CC1(C)CC(=O)C=C(Nc2ccccc2C#N)C1.Cl", "=", 38.2],
  ["O=C(O)CC1(CC(=O)Nc2ccc3sccc3c2)CCCCC1", "=", 42.6],
  ["NC(=O)N1c2ccccc2C=Cc2ccccc21", ">", 35.4],
  ["C=CCn1cc(/C=C2/NC(=O)NC2=O)c2ccccc21", "=", 1],
  ["CCCC(C(=O)Nc1ccncc1)c1ccccc1 (configuration not stated)", ">", 38.1],
  ["O=C1CN(C(=O)COC(=O)COc2ccccc2)c2ccccc2N1", ">", 51.1],
  ["Cc1nc(NC(=O)COC(=O)C2CC3CCCC(C2)C3=O)c(Cl)cc1Cl (configuration not stated)", ">", 59.9],
  ["Cc1nnc(SCC(=O)Nc2ccc(OC(F)F)c(Cl)c2)n(N)c1=O", ">", 58.8],
  ["Cc1cc2nsnc2c(S(=O)(=O)N2CCN(C)CC2)c1C", "=", 47.9],
  ["CCOc1ccc(NC(=S)NCc2nc3ccccc3[nH]2)cc1", "=", 46.6],
  ["COC(=O)C1=Nc2ccccc2/C1=C\\c1c(O)n(C)c(=O)n(C)c1=O", ">", 51.2],
  ["CC(C(=O)Nc1ccc(F)c(F)c1F)N(C)CCOc1ccccc1 (configuration not stated)", "=", 13.6],
  ["CSc1nc(C)nc(N/C=C(\\C#N)S(=O)(=O)c2ccccc2Cl)n1", "=", 15.6],
  ["CCC(CC)C(=O)N1CC(=O)Nc2ccc(F)cc2C1c1ccccc1 (configuration not stated)", "=", 51.9],
  ["Cc1nc(SCC(=O)NCc2ccc3c(c2)OCO3)nc(C)c1C", ">", 51.8]
]}
